Exercise: state measured Kd for each of the binders provided.
# targetUnderTest: T1, eIF4A;eIF4B;eIF4G-MC (eIF4G) (yeast;yeast;yeast, UniProt P10081;P34167;P39935 1-395;1-436;572-952, ||)
# T1 sequence 1: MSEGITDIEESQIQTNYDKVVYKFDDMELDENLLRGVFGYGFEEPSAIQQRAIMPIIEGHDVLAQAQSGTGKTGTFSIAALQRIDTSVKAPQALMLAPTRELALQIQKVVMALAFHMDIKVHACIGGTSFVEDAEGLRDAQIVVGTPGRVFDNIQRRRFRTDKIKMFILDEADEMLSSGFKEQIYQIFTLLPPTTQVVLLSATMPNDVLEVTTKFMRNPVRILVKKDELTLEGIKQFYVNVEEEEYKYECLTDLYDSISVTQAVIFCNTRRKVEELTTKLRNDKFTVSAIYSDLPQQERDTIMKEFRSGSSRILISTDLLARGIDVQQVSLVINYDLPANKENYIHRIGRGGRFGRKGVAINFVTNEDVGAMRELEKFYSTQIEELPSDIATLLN
# T1 sequence 2: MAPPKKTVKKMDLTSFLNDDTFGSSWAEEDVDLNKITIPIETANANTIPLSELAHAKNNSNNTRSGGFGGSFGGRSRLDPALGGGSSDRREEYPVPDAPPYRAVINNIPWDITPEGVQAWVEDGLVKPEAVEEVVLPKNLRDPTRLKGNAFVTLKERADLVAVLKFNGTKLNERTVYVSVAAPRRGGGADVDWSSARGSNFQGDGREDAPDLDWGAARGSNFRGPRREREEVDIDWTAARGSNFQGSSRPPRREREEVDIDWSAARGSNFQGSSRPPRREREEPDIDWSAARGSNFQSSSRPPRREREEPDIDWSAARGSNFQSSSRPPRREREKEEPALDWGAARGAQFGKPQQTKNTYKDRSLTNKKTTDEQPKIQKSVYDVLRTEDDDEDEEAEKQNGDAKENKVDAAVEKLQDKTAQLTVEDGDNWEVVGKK
# T1 sequence 3: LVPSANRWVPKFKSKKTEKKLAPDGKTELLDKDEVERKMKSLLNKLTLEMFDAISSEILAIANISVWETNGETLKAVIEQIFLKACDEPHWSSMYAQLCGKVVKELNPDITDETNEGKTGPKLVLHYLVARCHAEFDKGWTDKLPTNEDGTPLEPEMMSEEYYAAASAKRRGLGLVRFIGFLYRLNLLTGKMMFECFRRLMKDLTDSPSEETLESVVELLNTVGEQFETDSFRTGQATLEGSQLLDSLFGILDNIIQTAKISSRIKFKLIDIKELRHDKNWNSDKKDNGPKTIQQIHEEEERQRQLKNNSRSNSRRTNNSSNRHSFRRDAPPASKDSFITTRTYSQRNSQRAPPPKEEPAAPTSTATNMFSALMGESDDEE
# assayName: fluorescence anisotropy

Field Kd (entry 30/10mer RNA (dsRNA) RNA 1: GGGGAGAAAAACUAGCACCGUAAAGCACGC RNA 2: GCUUUACGGU ) reads 1200 nM

Field Kd (entry 20/10mer RNA (dsRNA) RNA 1: ACUAGCACCGUAAAGCACGC RNA 2: GCUUUACGGU ) reads 3500 nM
